Each recorded value in this set is attributed to patent US20250163186A1.

Can you tell me Confirm OD450 Duplicate2 for the items I'm about to list?
- Study System: T1, human IgE (human, UniProt P01854 1-428)
- T1 construct: written under the same molecule; also called IgE (Abcam ab65866); soluble IgE
- T1 sequence (P01854 other isoform, or with tags, fused parts or gaps limits assumed, form in doubt): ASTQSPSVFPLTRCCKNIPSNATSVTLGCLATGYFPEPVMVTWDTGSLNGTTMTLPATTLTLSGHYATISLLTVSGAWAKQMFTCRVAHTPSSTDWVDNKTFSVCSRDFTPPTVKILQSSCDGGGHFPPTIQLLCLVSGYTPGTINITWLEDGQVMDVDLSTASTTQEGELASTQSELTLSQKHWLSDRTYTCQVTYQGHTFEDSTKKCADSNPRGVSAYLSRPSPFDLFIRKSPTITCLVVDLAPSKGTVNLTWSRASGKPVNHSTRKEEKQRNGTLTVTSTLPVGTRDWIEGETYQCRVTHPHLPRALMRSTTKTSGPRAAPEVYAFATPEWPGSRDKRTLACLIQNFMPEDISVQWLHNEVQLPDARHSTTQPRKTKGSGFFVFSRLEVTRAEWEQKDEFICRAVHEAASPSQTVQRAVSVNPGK
- Experimental Protocol: ELISA, clone lysate on IgE-coated plate
# print the numeric value only

### Prompt Quick check: Confirm OD450 Duplicate2 of 44C1 (VHH) VHH: EVQLLESGGGEVQPGGSLRLSCVASGLTFSSYNMGWLRQAPGKEREFVGLSGSSSTSTYYAESVKGRFTISRDNAKNTVYLQMTSLRAEDTAVYYCAARRLLSTYWSDRSWDMWGQGTLVTVEP ?
### Response 0.537

### Prompt Quick check: Confirm OD450 Duplicate2 of 9F1 (VHH, also called hzB10v40 VHH, CDR1 site 9 M to S) VHH: EVQLLESGGGEVQPGGSLRLSCVASGLTFSSYNSGWLRQAPGKEREFVGLSGSSSTSTYYAESVKGRFTISRDNAKNTVYLQMTSLRAEDTAVYYCAARRLLSTYWSDRSWDFWGQGTLVTVEP ?
### Response 0.467

### Prompt Quick check: Confirm OD450 Duplicate2 of 28H1 (VHH) VHH: EVQLLESGGGEVQPGGSLRLSCVASGLTFSSYNMGWLRQAPGKEREFVGLSGSSSTSTYYAESVKGRFTISRDNAKNTVYLQMTSLRAEDTAVYYCSARRLLSTYWSDRSWDFWGQGTLVTVEP ?
### Response 0.492
